Target: MRP2 (ABCC2) (Homo sapiens)
Construct: host or cells: membrane vesicle preparations
Sequence (Q92887 whole entry): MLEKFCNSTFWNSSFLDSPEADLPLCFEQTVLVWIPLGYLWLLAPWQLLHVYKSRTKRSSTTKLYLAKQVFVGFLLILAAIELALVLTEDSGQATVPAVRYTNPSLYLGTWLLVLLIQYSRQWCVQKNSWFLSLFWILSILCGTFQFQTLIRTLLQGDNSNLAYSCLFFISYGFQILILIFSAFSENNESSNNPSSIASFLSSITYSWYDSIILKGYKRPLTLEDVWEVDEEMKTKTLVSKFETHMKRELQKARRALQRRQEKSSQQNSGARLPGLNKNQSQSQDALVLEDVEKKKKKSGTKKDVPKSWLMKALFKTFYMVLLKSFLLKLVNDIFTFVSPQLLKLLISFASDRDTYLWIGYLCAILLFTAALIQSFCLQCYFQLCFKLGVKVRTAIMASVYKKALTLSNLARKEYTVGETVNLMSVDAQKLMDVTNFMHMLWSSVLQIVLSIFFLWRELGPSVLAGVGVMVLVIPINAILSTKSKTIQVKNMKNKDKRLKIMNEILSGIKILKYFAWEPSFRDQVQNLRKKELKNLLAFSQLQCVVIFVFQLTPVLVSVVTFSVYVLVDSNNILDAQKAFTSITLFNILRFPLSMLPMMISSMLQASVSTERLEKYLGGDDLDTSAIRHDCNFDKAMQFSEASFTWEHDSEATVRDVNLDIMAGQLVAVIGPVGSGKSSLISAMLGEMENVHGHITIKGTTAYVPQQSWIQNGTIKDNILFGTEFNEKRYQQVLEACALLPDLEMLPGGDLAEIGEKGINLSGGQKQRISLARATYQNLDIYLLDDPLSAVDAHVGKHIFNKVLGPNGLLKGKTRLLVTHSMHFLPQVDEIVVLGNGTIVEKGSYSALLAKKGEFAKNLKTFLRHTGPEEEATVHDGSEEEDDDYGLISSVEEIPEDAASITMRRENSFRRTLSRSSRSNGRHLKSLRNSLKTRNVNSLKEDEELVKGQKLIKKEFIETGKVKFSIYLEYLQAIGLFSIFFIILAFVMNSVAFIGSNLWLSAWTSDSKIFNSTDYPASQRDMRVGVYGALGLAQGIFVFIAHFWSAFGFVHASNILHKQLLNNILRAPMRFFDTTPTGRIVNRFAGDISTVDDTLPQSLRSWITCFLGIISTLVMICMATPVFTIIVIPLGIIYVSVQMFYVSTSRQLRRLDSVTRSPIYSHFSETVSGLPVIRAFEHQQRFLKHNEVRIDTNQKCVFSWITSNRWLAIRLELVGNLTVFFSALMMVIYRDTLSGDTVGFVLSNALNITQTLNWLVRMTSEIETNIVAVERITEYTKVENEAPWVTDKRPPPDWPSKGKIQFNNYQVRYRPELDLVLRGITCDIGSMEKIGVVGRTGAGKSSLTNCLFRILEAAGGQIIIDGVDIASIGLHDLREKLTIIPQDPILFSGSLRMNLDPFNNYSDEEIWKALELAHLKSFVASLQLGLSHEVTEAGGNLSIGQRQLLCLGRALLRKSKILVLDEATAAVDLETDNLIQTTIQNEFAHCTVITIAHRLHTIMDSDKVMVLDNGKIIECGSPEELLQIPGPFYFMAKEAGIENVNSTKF
Assay: in vitro
Format: biochemical
Settings: human
Experimental: Cells and experimental conditions for the transporter inhibition assays are summarized below in Table 7. […] M15, M20, and M23 were prepared according to the procedures described herein. All other materials were purchased by SOLVO Biotechnology and experiments were conducted according to SOLVO Standard Operating Procedures (SOPs) of its certified ISO 9001:2008 system. Lot and product information was recorded by SOLVO Biotechnology. […]
Catalogue of compounds with associated inhibition at 5 min, 300 µM
Dear colleague, please return just the value in %, with no unit written.

O=C(NCc1c(F)cc(F)c(OS(=O)(=O)O)c1F)c1cn2c(c(O)c1=O)C(=O)N1C(C2)O[C@@H]2CC[C@H]1C2 (some centres unmarked) [Metabolite M20]; 98

Note to self: inhibition at 5 min, 300 µM recorded for O=C(NCc1c(F)cc(F)cc1F)c1cn2c(c(O[C@@H]3O[C@H](C(=O)O)[C@@H](O)[C@H](O)[C@H]3O)c1=O)C(=O)N1[C@H]3CC[C@H](C3)O[C@@H]1C2 [Metabolite M15] was 53

----------
Molecular target: OATP1B3 (Homo sapiens)
Sequence (Q9NPD5 whole entry): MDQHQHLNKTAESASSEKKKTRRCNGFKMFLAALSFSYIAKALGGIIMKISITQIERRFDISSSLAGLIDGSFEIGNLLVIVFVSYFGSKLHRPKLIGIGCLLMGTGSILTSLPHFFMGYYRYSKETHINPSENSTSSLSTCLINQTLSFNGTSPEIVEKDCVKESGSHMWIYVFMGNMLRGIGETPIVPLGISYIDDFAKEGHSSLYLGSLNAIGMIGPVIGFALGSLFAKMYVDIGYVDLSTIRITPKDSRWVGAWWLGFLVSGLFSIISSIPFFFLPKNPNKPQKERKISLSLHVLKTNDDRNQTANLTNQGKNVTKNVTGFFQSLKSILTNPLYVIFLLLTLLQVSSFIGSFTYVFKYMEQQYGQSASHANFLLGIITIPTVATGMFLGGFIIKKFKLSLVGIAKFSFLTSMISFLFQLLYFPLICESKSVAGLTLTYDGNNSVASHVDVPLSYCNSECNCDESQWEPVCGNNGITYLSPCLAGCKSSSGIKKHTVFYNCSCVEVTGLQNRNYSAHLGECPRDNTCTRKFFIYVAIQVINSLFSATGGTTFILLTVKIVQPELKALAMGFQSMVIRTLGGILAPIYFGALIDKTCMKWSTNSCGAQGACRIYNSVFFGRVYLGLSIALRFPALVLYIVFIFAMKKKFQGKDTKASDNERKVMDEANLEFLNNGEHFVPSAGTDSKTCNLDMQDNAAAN
Assay: OATP1B3 inhibition assay using Fluo-3 as probe substrate, CHO cells
Assay type: cell-based
Design: expressed in transfected cells; host or cells: CHO cells
Details: human, CHO cells transfected with human OATP1B3, pH 7.4, probe Fluo-3 (2 μM); OATP1B3, Fluo-3, at 100 μM; read-out: Maximum inhibition at highest test conc. (% of control)
measurement-label: inhibition at 1 h, 100 µM (%)
Only the number, expressed in %, is required.

O=C(NCc1c(F)cc(F)c(O)c1F)c1cn2c(c(O)c1=O)C(=O)N1[C@H]3CC[C@H](C3)O[C@@H]1C2 [Metabolite M23]; 20

For this compound ( O=C(NCc1c(F)cc(F)cc1F)c1cn2c(c(O[C@@H]3O[C@H](C(=O)O)[C@@H](O)[C@H](O)[C@H]3O)c1=O)C(=O)N1[C@H]3CC[C@H](C3)O[C@@H]1C2 [Metabolite M15] ), measured inhibition at 1 h, 100 µM is 0

The value of inhibition at 1 h, 100 µM measured for the compound O=C(NCc1c(F)cc(F)c(OS(=O)(=O)O)c1F)c1cn2c(c(O)c1=O)C(=O)N1C(C2)O[C@@H]2CC[C@H]1C2 (stereo partly drawn) [Metabolite M20] turned out to be 18

----------
Biological target: multidrug-resistance protein 2 (MRP2; ABCC2) (Homo sapiens, UniProt Q92887)
Experiment: biochemical
measurement-label: IC50

Example results:
O=C(NCc1c(F)cc(F)cc1F)c1cn2c(c(O[C@@H]3O[C@H](C(=O)O)[C@@H](O)[C@H](O)[C@H]3O)c1=O)C(=O)N1[C@H]3CC[C@H](C3)O[C@@H]1C2 [Metabolite M15]; 256 µM
O=C(NCc1c(F)cc(F)c(OS(=O)(=O)O)c1F)c1cn2c(c(O)c1=O)C(=O)N1C(C2)O[C@@H]2CC[C@H]1C2 (stereo partly drawn) [Metabolite M20]; 45 µM

// field: IC50; key: O=C(NCc1c(F)cc(F)c(O)c1F)c1cn2c(c(O)c1=O)C(=O)N1[C@H]3CC[C@H](C3)O[C@@H]1C2 [Metabolite M23] ; value = > 100 µM
